Reported IC50, human DGAT1 (Homo sapiens, UniProt O75907).
RECORDED_METRIC: IC50 (nM)

1: Cc1ccc(C)n1-c1cccc(C(=O)Nc2ccc(N3CCN(C(=O)Nc4c(Cl)cccc4Cl)CC3)cc2)c1
2: Cc1cc(Br)cc(C)c1NC(=O)N1CCN(c2ccc(NC(=O)c3ccccc3-c3ccc(C(F)(F)F)cc3)cc2)CC1
3: O=C(Nc1ccc(N2CCN(C(=O)Nc3c(Cl)cccc3Cl)CC2)cc1)c1ccc(-n2ccnc2)cc1
4: CCOC(=O)c1cccc(C(=O)Nc2ccc(N3CCN(C(=O)Nc4c(Cl)cccc4Cl)CC3)cc2)c1
Q: Exam item: list the entries in increasing order of IC50. Return value: ordered labels per request.
Ans: 4, 1, 3, 2
